- Test system: HT-29
- experiment_summary: Cytotoxicity against human HT-29 cells after 72 hrs by Alamar blue assay
- Format: functional, cell-based
- assay_context: HT-29, 72 h
measured_parameter: pIC50
Numbers only, as −log10 of the molar value.

Provide the reported pIC50 of each entry below, same order.
1. CCn1c2c(c3ccccc31)Cc1c(CO)c(CO)c(C)n1C2
2. CCc1c(CO)c(CO)c2n1Cc1c(c3ccccc3n1C)C2
3. CCNC(=O)OCc1c(COC(=O)NCC)c2n(c1C)Cc1c(c3ccccc3n1C)C2
4. Cc1c(COC(=O)NC(C)C)c(COC(=O)NC(C)C)c2n1Cc1c(c3ccccc3n1C)C2
5. CCn1c2c(c3ccccc31)Cc1c(COC(=O)NC(C)C)c(COC(=O)NC(C)C)c(C)n1C2
6. Cc1c(CO)c(CO)c2n1Cc1c(c3ccccc3n1C)C2

[A]
1: 5.21; 2: 5.07; 3: 4.95; 4: 4.97; 5: 5.20; 6: 5.47
